Source listed as PubChem BioAssay (NCI).

- Test system: CAKI-1 renal
- assayInfo: NCI tumour cell line growth inhibition, 48 h
Let's look at some compounds and their measured GI50.

compound	systemTested	assayValue
COCCOC1=C(Cl)C(=O)c2ccccc2C1=O	CAKI-1 renal	2.83 µM
C(=Nc1nc(SCc2ccccc2)nc2[nH]ncc12)c1cccs1	CAKI-1 renal	29.8 µM

Next compound, please.
# input Check the records and state GI50 for COC12C(COC(=O)NCCO)C3=C(C(=O)C(C)=C(N)C3=O)N1CC1NC12 (stereo not drawn)
# output 4.99 µM

###

- Test system: UO-31 renal
- assayInfo: NCI tumour cell line growth inhibition, 48 h
Recorded TGI by entry

Completed entries (count: 5):
compound	assayValue
COc1ccccc1Oc1nccc(-c2c(-c3ccc(F)cc3)ncn2C2CCNCC2)n1	> 25 µM
COc1ccc2c(C(=O)O)cc3ccccc3c2c1OC	30.9 µM
Nc1nc(=S)c2ncn(C3OC(COP(=O)(O)O)C(O)C3O)c2[nH]1 (stereo unspecified)	> 100 µM
Cc1ccc(S(=O)(=O)N(CC(O)COc2ccccc2)c2c(F)cccc2F)cc1 (stereo unspecified)	38.7 µM
CCC(c1ccccc1)c1noc(CCN(CC)CC)n1 (stereo unspecified)	> 100 µM

# input For the compound O=C(NCCN(CCNC(=O)c1cccc(O)c1O)CCNC(=O)c1cccc(O)c1O)c1cccc(O)c1O , give its reported TGI.
# output > 100 µM

###

- System: A549 NSCLC
- assayInfo: NCI tumour cell line growth inhibition, 48 h
Reported TGI values are given for each entry in this list.

Check out these entries, answers already filled in.
molecule	assayValue
COC(=O)/C=C(\C(=O)OC)c1cc(C)c2cc(C(C)C)ccc(C)c1-2	> 100 µM
COC(=O)C1CCC(=O)N1CN(C(C)=O)c1cccc(O)c1 (configuration not stated)	> 100 µM
CCOC(=O)/C(=C\c1cccc(C)c1)C(C)=O	> 100 µM

# input State its TGI for this molecule: O=C1N[C@@H]2CCCC[C@@H]2C12CCCCC2
# output > 100 µM

# input Please supply the value of reported TGI for the item O=NN(CCCl)C(=O)NC1CCC(CC(=O)O)CC1 (configuration not stated)
# output > 100 µM

# input Specify reported TGI for the molecule shown: CC12OC(=O)C(C#N)C1(C)C1C(=O)CCCC12 (configuration not stated)
# output > 100 µM

# input In one line, give reported TGI of the entry Nc1nccc(-c2c(-c3ccc(F)cc3)nn3cc(C(F)(F)F)ccc23)n1 .
# output > 25 µM

# input // Input: COC(CN(C)C(=S)Nc1cccc2ccccc12)OC . Output its TGI only.
# output > 10 µM

# input Check the records and state TGI for C1CCC(N=C2N(C3CCCCC3)C(=NC3CCCCC3)N2C2CCCCC2)CC1
# output > 100 µM

# input Answer with the recorded TGI of Cc1cc(C)c(-c2no/c(=N\S(=O)(=O)c3ccc(Cl)cc3)o2)c(C)c1 only.
# output > 100 µM

# input Please give the documented TGI of O=C(c1ccccc1)C1(Br)S(=O)(=O)OCCOS1(=O)=O
# output > 100 µM

# input Look up and report measured TGI for this entry: Cc1ccc(OCC2OC(n3cnc4c(Cl)nc(Nc5cc(Cl)cc(Cl)c5)nc43)CC2Oc2ccc(C)cc2)cc1 (configuration not stated)
# output > 100 µM

###

- Test system: A498 renal
- assayInfo: NCI tumour cell line growth inhibition, 48 h
measurementName: TGI

Worked examples follow.
compound	systemTested	measurementName	assayValue
C=CCN(CC=C)C(=O)c1cc(C)nc2c1c(=O)n(-c1ccccc1)c(=O)n2CCCN1CCN(c2ccccc2OC)CC1	A498 renal	TGI	> 50 µM
Cc1cc(C)c(-c2no/c(=N\S(=O)(=O)c3ccc(Cl)cc3)o2)c(C)c1	A498 renal	TGI	> 100 µM
N#Cc1sc2nc3ccccc3n2c1N	A498 renal	TGI	> 100 µM
COc1ccc(-c2nc3ccc(Cc4ccc5nc(-c6ccc(OC)cc6)[nH]c5c4)cc3[nH]2)cc1	A498 renal	TGI	0.193 µM
COC(=O)/C=C/c1ccc(OP(=O)(O)O)c(OC)c1	A498 renal	TGI	> 100 µM
COc1cc(OC)c(OC)cc1/C=C/c1nc2ccccc2s1	A498 renal	TGI	> 100 µM
Fc1ccc(NC(c2ccc(F)cc2)C2CCN(CCCCc3ccccc3)CC2)cc1 (stereo not drawn)	A498 renal	TGI	2.21 µM

Please examine the following record next.
# input Give the reported value of TGI for this record: Oc1ccc(C(=C(Br)c2ccccc2)c2ccc(O)cc2)cc1
# output 34.2 µM

###

Reported TGI values are given for each entry in this list.
- System: MOLT-4 leukemia
- assayInfo: NCI tumour cell line growth inhibition, 48 h

# input State measured TGI of the compound COc1ccc2nc(NC(=O)C(=O)CC(=O)c3ccc([N+](=O)[O-])cc3)sc2c1 with MOLT-4 leukemia.
# output > 100 µM

# input Look up and report measured TGI (MOLT-4 leukemia) for the following compound: C[C@H](C(=O)O)C(=O)NC(=O)N(Cc1ccccc1)N=O
# output > 100 µM

###

Below: a set of entries, each annotated with reported TGI.
- Tested on: MOLT-4 leukemia
- assayInfo: NCI tumour cell line growth inhibition, 48 h

compound	measurementName	assayValue
O=C1c2ccccc2C(=O)c2[nH]cnc21	TGI	> 100 µM

# input Quote TGI reported for CC(=O)OCC(=O)[C@@]1(O)CC[C@H]2[C@@H]3C[C@H](C)C4=CC(=O)C=C[C@]4(C)[C@@]3(F)[C@@H](O)C[C@@]21C please.
# output > 100 µM

# input Specify reported TGI for the compound shown: O=C1CC(O)c2cscc21 (configuration not stated)
# output > 100 µM

# input Give the reported value of TGI for this record: O=C1c2ccccc2C(=O)c2c(NC3CCCCC3)ccc(Nc3ccc(S(=O)(=O)O)cc3)c21
# output > 100 µM

###

- System: MOLT-4 leukemia
- assayInfo: NCI tumour cell line growth inhibition, 48 h
# TGI per entry

compound	assayValue
CC(=O)OC1COC(N2CCc3cc([N+](=O)[O-])ccc32)C(OC(C)=O)C1OC(C)=O (stereo not drawn)	> 100 µM

# input Give the reported value of TGI for this record: CC(=O)NC1C(OCC(=O)NCCNc2ccc([N+](=O)[O-])c3[nH]c4ccccc4c(=O)c23)C(O)C(CO)OC1(C)OCc1ccccc1 (stereo not drawn)
# output > 100 µM

# input Tell me its TGI given S=C1Cc2c(-c3ccccc3)cc(-c3cccc(Cl)c3)nc2-c2ccccc2N1 as the entry.
# output > 90.2 µM

# input Return the recorded TGI value; entry: COc1ccc(-c2cc(/C=C/C(=O)c3ccc(N)cc3)[nH]n2)cc1OC
# output 16.5 µM

# input Please give measured TGI of the following entry: CC(=O)Oc1c(C(=O)[O-])cc(C(C)C)cc1C(C)C.CC(=O)Oc1c(C(=O)[O-])cc(C(C)C)cc1C(C)C.CC(=O)Oc1c(C(=O)[O-])cc(C(C)C)cc1C(C)C.CC(=O)Oc1c(C(=O)[O-])cc(C(C)C)cc1C(C)C.[Cu+2].[Cu+2]
# output > 100 µM

# input Return TGI for the following compound: O=[N+]([O-])c1ccc(-c2ccc(C3=Nn4c(CNc5ccccc5Cl)nnc4SC3)o2)cc1
# output > 100 µM

# input Using the record for CN1CCN(c2c(F)cc(NC3=C(Cl)C(=O)c4ncccc4C3=O)cc2F)CC1 , state its measured TGI.
# output 6.71 µM

# input Name the recorded TGI of the item COc1ccccc1CNCCN1C(=O)c2ccc3c4c(ccc(c24)C1=O)C(=O)N(CCNCc1ccccc1OC)C3=O in your answer.
# output 0.65 µM

# input Give TGI for the following compound: C#Cc1ccc(-n2c(/C=C/c3ccc(O)cc3)nc3ncccc3c2=O)cc1
# output > 100 µM

# input Identify measured TGI associated with COc1cc(/C=C/c2csnn2)cc(OC)c1OC
# output > 100 µM

# input Identify measured TGI corresponding to Cc1ccc(S(=O)(=O)N(CC(O)COc2ccccc2)c2c(F)cccc2F)cc1 (stereo not drawn)
# output > 100 µM

# input Write down TGI measured for item O=c1cc(Nc2cccc(O)c2)[nH]c(=O)[nH]1
# output > 100 µM

# input Answer with reported TGI of Oc1c(N2CCCCC2)cc(-c2cc(N3CCCCC3)c(O)c3ccccc23)c2ccccc12
# output 79.8 µM
